- System: bladder cancer cell lines
- run.description: Cell based assay, cell viability (CellTiter-Glo), bladder cancer cell lines
- condition.context: 253J cells; 72 hours treatment; 0 to 2 μM; CellTiter-Glo; read-out: IC50, bladder cancer cell line 253J

{"columns": ["molecule", "target.system", "IC50"],
 "data": [
  ["CC(=O)c1c(S)[nH]c2c(Br)ccc(Cl)c2c1=O", "bladder cancer cell lines", "> 2000 nM"],
  ["CC(=O)c1c(SCc2ccc([N+](=O)[O-])cc2)[nH]c2c(Br)ccc(Cl)c2c1=O", "bladder cancer cell lines", "> 2000 nM"],
  ["CC(=O)c1c([S+](C)[O-])n(C(=O)c2ccc(Br)cc2)c2c(Br)ccc(Cl)c2c1=O (stereo not shown)", "bladder cancer cell lines", "1100 nM"],
  ["CC(=O)c1c([S+](C)[O-])n(Cc2ccc(F)c(Cl)c2)c2c(Br)ccc(Cl)c2c1=O (stereo not shown)", "bladder cancer cell lines", "> 2000 nM"],
  ["CC(=O)c1c([S+]([O-])Cc2cccc(S(F)(F)(F)(F)F)c2)[nH]c2c(Br)ccc(Cl)c2c1=O (stereo not shown)", "bladder cancer cell lines", "900 nM"],
  ["CC(=O)c1c([S+]([O-])c2ccccc2)[nH]c2c(Br)ccc(Cl)c2c1=O (stereo not shown)", "bladder cancer cell lines", "> 2000 nM"],
  ["CC(=O)c1c([S+]([O-])Cc2ccc(S(F)(F)(F)(F)F)cc2)[nH]c2c(Br)ccc(Cl)c2c1=O (stereo not shown)", "bladder cancer cell lines", "970 nM"],
  ["CC(=O)c1c([S+](C)[O-])n(S(=O)(=O)c2ccc(C(C)(C)C)cc2)c2c(Br)ccc(Cl)c2c1=O (stereo not shown)", "bladder cancer cell lines", "> 2000 nM"],
  ["CC(=O)c1c([S+]([O-])C(C)c2ccccc2)[nH]c2c(Br)ccc(Cl)c2c1=O (stereo not shown)", "bladder cancer cell lines", "> 2000 nM"],
  ["CC(=O)c1c([S+](C)[O-])n(S(=O)(=O)C(F)(F)F)c2c(Br)ccc(Cl)c2c1=O (stereo not shown)", "bladder cancer cell lines", "> 2000 nM"],
  ["CC(=O)c1c([S+]([O-])Cc2ccc(NS(C)(=O)=O)cc2)[nH]c2c(Br)ccc(Cl)c2c1=O (stereo not shown)", "bladder cancer cell lines", "> 2000 nM"],
  ["CSc1[nH]c2c(Br)ccc(Cl)c2c(=O)c1C(C)=O", "bladder cancer cell lines", "> 2000 nM"],
  ["CC(=O)c1c(SCc2cc(Cl)ccc2Cl)[nH]c2c(Br)ccc(Cl)c2c1=O", "bladder cancer cell lines", "> 2000 nM"],
  ["COCSc1[nH]c2c(Br)ccc(Cl)c2c(=O)c1C(C)=O", "bladder cancer cell lines", "> 2000 nM"],
  ["CC(=O)c1c(S/C=C\\C(=O)O)[nH]c2c(Br)ccc(Cl)c2c1=O", "bladder cancer cell lines", "> 2000 nM"],
  ["CC(=O)c1c(SCC#N)[nH]c2c(Br)ccc(Cl)c2c1=O", "bladder cancer cell lines", "> 2000 nM"]
]}

----------
The following compounds are listed with their measured pIC50 values.
- System: colorectal cancer cell lines (e.g. DLD-1, HCT 116, SW620, HCT-15, HCT-8, RKO)
- run.description: Cell based assay, cell viability (CellTiter-Glo), colorectal cancer cell lines
- condition.context: Homo sapiens, HT-29, 72 hours treatment, read-out: IC50, colorectal cancer cell line HT-29
pIC50: −log10 of the molar value.

{"columns": ["compound", "pIC50"],
 "data": [
  ["CC(=O)c1c([S+]([O-])Cc2ccc(C(F)(F)F)o2)[nH]c2c(Br)ccc(Cl)c2c1=O (stereo not shown)", "< 5.70"],
  ["CC(=O)c1c([S+](C)[O-])n(S(=O)(=O)C(F)(F)F)c2c(Br)ccc(Cl)c2c1=O (stereo not shown)", "< 5.00"],
  ["CC(=O)c1c(S/C=C\\C(=O)O)[nH]c2c(Br)ccc(Cl)c2c1=O", "< 5.00"],
  ["COc1cc(S(F)(F)(F)(F)F)ccc1C[S+]([O-])c1[nH]c2c(Br)ccc(Cl)c2c(=O)c1C(C)=O (stereo not shown)", "< 5.00"]
]}
